assay: growth modulation of vineyard yeast isolate – strain RM11-1a, OD600, basal, 24 h, primary screen (AID 1177);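 further: cultures grown under basal conditions with no added stressor; test concentration not given here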; conditions: S. cerevisiae RM11-1a growth, OD600, 24 h; higher = more signal, called active from +8 up or from −8 down
Kindly supply the reported z-score values for the records listed here.
Answer with the value's number alone.

Consider C=CCN1Cc2ccccc2[C@@H]2OC(c3ccc(OCCCO)cc3)=N[C@]2(CCS(=O)(=O)c2ccccc2)C1=O . Its measured z-score is 1.38

Consider C=C(CCCC)/C(=C/C[C@H](OC(C)=O)c1ccc(OCCO)cc1)c1cnc2ccccc2c1 . Its measured z-score is -0.476

Consider O=C1C2C=CC(C(O)c3cc(C(F)(F)F)cc(C(F)(F)F)c3)N(Nc3ccccc3)C2C(=O)N1c1ccccc1 (stereo not drawn) . Its measured z-score is 0.596
